- ASSAYED_SYSTEM: Hsp90alpha (UniProt P07900)
- ASSAY_NOTES: FP filter
- CONDITION_SET: 5-10-5 gapmer, cEt wings 1-5 and 16-20, 2'-deoxy gap, all C 5mC, full PS; nitrocellulose double-filter binding, printed as binding constant
pKd: −log10 of the molar value.
MEASURED_METRIC: pKd

* CTGCTAGCCTCTGGATTTGA [Isis 586183 (PS/cEt)] | 7.71
